targetOrSystem: serotonin 2 receptor (Rattus norvegicus, UniProt P14842)
Construct: To the receptor fraction of the cerebral cortex were added a test compound and 0.3 nM of [^3H] ketanserin; from tissue; host or cells: rat cerebral cortex membrane fraction
Sequence (P14842 whole entry): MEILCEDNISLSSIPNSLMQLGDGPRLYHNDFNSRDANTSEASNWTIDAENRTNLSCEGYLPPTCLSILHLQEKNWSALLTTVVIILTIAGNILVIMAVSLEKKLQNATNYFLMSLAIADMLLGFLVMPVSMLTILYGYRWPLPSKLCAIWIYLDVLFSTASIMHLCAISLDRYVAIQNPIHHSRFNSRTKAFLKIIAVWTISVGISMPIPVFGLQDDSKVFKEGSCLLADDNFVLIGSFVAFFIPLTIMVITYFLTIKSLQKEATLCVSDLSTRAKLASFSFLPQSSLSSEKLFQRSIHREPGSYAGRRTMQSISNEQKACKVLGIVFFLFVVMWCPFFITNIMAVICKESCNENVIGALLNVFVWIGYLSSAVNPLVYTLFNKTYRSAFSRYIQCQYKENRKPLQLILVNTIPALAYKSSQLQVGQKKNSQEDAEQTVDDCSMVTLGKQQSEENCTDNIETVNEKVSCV
assayProcedure: Binding test on [3H] ketanserin, cerebral cortex receptor fraction
Set-up: species or system SD rats
conditionDetails: 0.3 nM [3H] ketanserin, 37° C. 15 min, read-out: 5HT2
Counter-ions that a name gives are not always drawn.
measuredMetric: Ki (nM)

CCN1CCN(c2nc(/C=C/c3cccc(OCCO)c3)cc3ccccc23)CC1 [Example 199, Oxalate] | 3.8

a = CCN1CCN(c2nc(COc3ccc(OC)cc3)cc3ccccc23)CC1 [Example 424, Hydrochloride]
b = CCNC(=O)Cc1ccc(-c2cc3ccccc3c(N3CCN(CC)CC3)n2)cc1 [Example 87, Hydrochloride]
### Prompt Input pair: a , b . Output: entry with lower Ki. Returns: label corresponding to the selected item.
### Response a

P = CCN1CCN(c2nc(-c3ccc(CCC(C)O)cc3)cc3sccc23)CC1 (stereo not shown) [Example 285, hydrochloride]
Q = CCN1CCN(c2nc(-c3ccc(CCC(C)(C)O)cc3)cc3ccccc23)CC1 [Example 388, Dihydrochloride]
R = CCN1CCN(c2nc(-c3ccc([C@@H]4C[C@H](O)CCO4)cc3)cc3ccccc23)CC1 (relative stereo) [Example 401, Dihydrochloride]
### Prompt // sort entries: Ki, high to low // ordering of labels required in reply
### Response R, P, Q

---

targetOrSystem: α1 adrenalin receptor
assayProcedure: Binding test on [3H] prazosin, cerebral cortex receptor fraction
conditionDetails: rat cerebral cortex receptor fraction, about 0.2 nM [3H] prazosin, room temperature 60 min; read-out: α 1
pKi: −log10 of the molar value. Structures can show the parent of a compound that is named as a salt.
measuredMetric: pKi

CCN1CCN(c2nc(-c3ccc4c(c3)CC(CO)C4)cc3ccccc23)CC1 (stereo not shown) [Example 393, Dihydrochloride] | 6.62
CCN1CCN(c2nc(C#Cc3ccc(OCCO)cc3)cc3ccccc23)CC1 [Example 183, Dihydrochloride] | 6.24
CCN1CCN(c2nc(-c3ccc(O)cc3)cc3ccccc23)CC1 [Example 7] | 6.28
CCN1CCN(c2nc(C#Cc3ccccn3)cc3ccccc23)CC1 [Example 179, Oxalate] | 6.68
CCN1CCN(c2nc(-c3ccc(C(C)O)cc3)cc3sccc23)CC1 (stereo not shown) [Example 281, oxalate] | 6.46
CCN1CCN(c2nc(-c3ccc(CCCO)c(C#N)c3)cc3ccccc23)CC1 [Example 32, hydrochloride] | 6.30
CCN1CCN(c2nc(-c3ccc(CCCO)c(F)c3)cc3ccccc23)CC1 [Example 29, hydrochloride] | 6.18
CCN1CCN(c2nc(-c3ccc(OCCO)cc3)cc3sccc23)CC1 [Example 286, dihydrochloride] | 6.52
CCN1CCN(c2nc(-c3ccc(OCCO)cc3)cc3ccccc23)CC1 [Example 36, dihydrochloride] | 5.91
CCCN1CCN(c2nc(-c3ccc(OCC(C)(C)O)cc3)cc3sccc23)CC1 [Example 289, hydrochloride] | 5.88
CCN1CCN(c2nc(-c3ccc(CCC(C)O)cc3)cc3ccccc23)CC1 (stereo not shown) [Example 22, oxalate] | 5.51
CCN1CCN(c2nc(-c3ccc(OCCOC)cc3)cc3ccccc23)CC1 [Example 42, dihydrochloride] | 5.61
CCN1CCN(c2nc(C#CCc3ccccc3)cc3ccccc23)CC1 [Example 181, Oxalate] | 6.04
CCN1CCN(c2nc(-c3ccc(OCCC#N)cc3)cc3ccccc23)CC1 [Example 52, Hydrochloride] | 6.26
COc1ccc(-c2cc3ccccc3c(N3CCN(CCO)CC3)n2)cc1 [Example 242, Dihydrochloride] | 5.75
CCN1CCN(c2nc(-c3ccc(OCCOC)nc3)cc3ccccc23)CC1 [Example 126] | 6.42

---

List of Ki tested on serotonin 2 receptor (Rattus norvegicus, UniProt P14842).
Where a name gives a salt, the structure may show the parent alone.
The reply should contain only the number, in nM.

# count of solved cases: 3
CCN1CCN(c2nc(-c3ccc(S(=O)(=O)N(CC)CC)cc3)cc3ccccc23)CC1 [Example 359, dihydrochloride] | 3.2
CCN1CCN(c2nc(-c3ccc(OCCCO)cc3)cc3ccccc23)CC1.Cl.Cl [Example 331, dihydrochloride] | 5.9
CCN1CCN(c2nc(-c3ccc(C(O)c4nccs4)cc3)cc3ccccc23)CC1 (stereo not shown) [Example 412] | 41.4

### Prompt I have this compound here, CCN1CCN(c2nc(-c3ccc(C(O)CC(C)(C)O)cc3)cc3ccccc23)CC1 (stereo not shown) [Example 25] , and I need its recorded Ki.
### Response 3.4

---

targetOrSystem: serotonin 1A receptor (Rattus norvegicus, UniProt P19327)
Construct: To the receptor fraction of the hippocampus were added a test compound and 0.5 nM of [^3H]; 8-hydroxy-dipropylaminotetralin; from tissue; host or cells: rat hippocampus membrane fraction
Sequence (P19327 whole entry): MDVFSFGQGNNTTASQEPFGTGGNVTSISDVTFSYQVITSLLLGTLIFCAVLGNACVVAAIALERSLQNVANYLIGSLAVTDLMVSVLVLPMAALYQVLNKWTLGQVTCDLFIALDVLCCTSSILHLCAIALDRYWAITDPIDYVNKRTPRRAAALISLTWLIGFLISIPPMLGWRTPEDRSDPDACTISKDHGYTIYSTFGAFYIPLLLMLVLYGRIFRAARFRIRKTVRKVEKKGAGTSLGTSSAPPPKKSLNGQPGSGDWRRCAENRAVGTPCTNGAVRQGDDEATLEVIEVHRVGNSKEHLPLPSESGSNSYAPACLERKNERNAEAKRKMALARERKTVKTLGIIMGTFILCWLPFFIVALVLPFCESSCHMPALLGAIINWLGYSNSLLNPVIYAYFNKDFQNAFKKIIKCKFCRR
assayProcedure: Binding test on [3H] 8-hydroxy-dipropylaminotetralin, hippocampus receptor fraction
Parameters: species or system SD rats
conditionDetails: rat hippocampus receptor fraction, 0.5 nM [3H] 8-OH-DPAT, room temperature 30 min; read-out: 5HT1
Structures can show the parent of a compound that is named as a salt.
measuredMetric: Ki (nM)

CCC(O)c1ccc(-c2cc3sccc3c(N3CCN(CC)CC3)n2)cc1 (stereo not shown) [Example 282, oxalate] | 10.8
CCN1CCN(c2nc(-c3ccc(OCC(O)CO)cc3)cc3ccccc23)CC1 (stereo not shown) [Example 337, dihydrochloride] | 25.7
CCN1CCN(c2nc(-c3ccc(S(=O)(=O)N4CCS(=O)(=O)CC4)cc3)cc3ccccc23)CC1 [Example 77, Hydrochloride] | 13.6
CCN1CCN(c2nc(-c3ccc(O[C@H](C)CO)cc3)cc3ccoc23)CC1 [Example 302, dihydrochloride] | 0.53
CCN1CCN(c2nc(-c3ccc(C4=CCOCC4)cc3)cc3ccsc23)CC1 [Example 266, Hydrochloride] | 97.3
CCNC(=O)c1ccc(-c2cc3ccccc3c(N3CCN(CC)CC3)n2)cc1 [Example 364, dihydrochloride] | 21.7

1 = CCN1CCN(c2nc(/C=C/c3ccc(N4CCOCC4)cc3)cc3ccccc23)CC1 [Example 205, Oxalate]
2 = CCN1CCN(c2nc(-c3ccc(C4CCOCC4)nc3)cc3ccccc23)CC1 [Example 156, oxalate]
### Prompt Which of these two has the smaller recorded Ki: 1 or 2 ? Choose, then provide that item's label.
### Response 2
(2: 10.9 nM, 1: 33.1 nM)

I = CCN1CCN(c2nc(-c3ccc(OC)cc3)cc3ccoc23)CC1 [Example 467, dihydrochloride]
II = CCN1CCN(c2nc(-c3ccc(OC)cc3)nc3ccccc23)CC1 [Example 427, Dihydrochloride]
### Prompt Endpoint returns whichever of I and II has the numerically higher Ki. When you have decided, please share the label of that item.
### Response II

1 = CCN1CCN(c2nc(-c3ccc(CCC(C)(C)O)cc3)cc3sccc23)CC1 [Example 291, dihydrochloride]
2 = CCN1CCN(c2nc(/C=C/c3ccc(N4CCOCC4)nc3)cc3ccccc23)CC1 [Example 200, Hydrochloride]
### Prompt Which record shows the lower Ki: the first, 1 , or the second, 2 ? Write down the label attached to your selection.
### Response 1

---

targetOrSystem: serotonin 1A receptor (Rattus norvegicus)
Construct: To the receptor fraction of the hippocampus were added a test compound and 0.5 nM of [^3H]; 8-hydroxy-dipropylaminotetralin; from tissue; host or cells: rat hippocampus membrane fraction
assayProcedure: Binding test on [3H] 8-hydroxy-dipropylaminotetralin, hippocampus receptor fraction
Parameters: species or system SD rats
conditionDetails: rat hippocampus receptor fraction, 0.5 nM [3H] 8-OH-DPAT, room temperature 30 min; read-out: 5HT1
Structures can show the parent of a compound that is named as a salt.
measuredMetric: Ki (nM)

CCN1CCN(c2nc(-c3ccc(CC(C)O)cc3)cc3ccsc23)CC1 (stereo not shown) [Example 436, dihydrochloride] | 8.64
CCN1CCN(c2nc(-c3ccc(S(=O)(=O)NCCOC)cc3)cc3ccccc23)CC1 [Example 354, dihydrochloride] | 3
CCN1CCN(c2nc(-c3ccc(CCCO)c(OC)c3)cc3ccccc23)CC1 [Example 33, hydrochloride] | 7.9
CCN1CCN(c2nc(C#CCc3ccccc3)cc3ccccc23)CC1 [Example 181, Oxalate] | 17.9
CCN1CCN(c2nc(-c3ccc(CCCO)cn3)cc3ccccc23)CC1 | 4.9

a = CCN1CCN(c2nc(-c3ccc([C@@H]4C[C@H](O)CCO4)cc3)cc3ccsc23)CC1 (relative stereo) [Example 454, dihydrochloride]
b = CCN1CCN(c2nc(-c3ccc(N4CCC(O)CC4)cc3)cc3ccccc23)CC1 [Example 97, Trihydrochloride]
### Prompt Name the one with the greater Ki value, either a or b as given. Kindly state the label of the option you pick.
### Response a
(a: 67.4 nM, b: 34.7 nM)

---

targetOrSystem: serotonin 1A receptor (Rattus norvegicus)
Construct: To the receptor fraction of the hippocampus were added a test compound and 0.5 nM of [^3H]; 8-hydroxy-dipropylaminotetralin; from tissue; host or cells: rat hippocampus membrane fraction
assayProcedure: Binding test on [3H] 8-hydroxy-dipropylaminotetralin, hippocampus receptor fraction
Parameters: species or system SD rats
conditionDetails: rat hippocampus receptor fraction, 0.5 nM [3H] 8-OH-DPAT, room temperature 30 min; read-out: 5HT1
Where a name gives a salt, the structure may show the parent alone.
measuredMetric: Ki (nM)

Solved cases below.
CCN1CCN(c2nc(COc3ccc(OC)cc3)cc3ccccc23)CC1 [Example 424, Hydrochloride] | 61.6
CCN1CCN(c2nc(-c3ccc(N4CCOC4=O)cc3)cc3ccccc23)CC1 [Example 95, Hydrochloride] | 7.8
CCN1CCN(c2nc(-c3ccc(C(F)CCO)cc3)cc3cccnc23)CC1 (stereo not shown) [Example 249, Dihydrochloride] | 38

a = CCN1CCN(c2nc(-c3ccc(CCC(C)O)cc3)cc3ccsc23)CC1 (stereo not shown) [Example 440, dihydrochloride]
b = CCN1CCN(c2nc(C#Cc3ccc(OC)cc3)cc3ccccc23)CC1 [Example 178, Dihydrochloride]
c = CCN1CCN(c2nc(CNc3ccc(OC)cc3)cc3ccccc23)CC1 [Example 219, oxalate]
d = CCN1CCN(c2nc(C(C)c3ccc(OC)cc3)cc3ccccc23)CC1 (stereo not shown) [Example 102, Oxalate]
### Prompt Sort (4 molecules) by Ki: min first. Enter labels, ranked according to the request.
### Response c, a, b, d
(c: 2.99 nM, a: 21.8 nM, b: 56.4 nM, d: 129 nM)

I = CCN1CCN(c2nc(-c3ccc(OCCCc4cccnc4)cc3)cc3ccccc23)CC1 [Example 157, hydrochloride]
II = CCN1CCN(c2nc(-c3cccc(OCCO)c3)cc3sccc23)CC1 [Example 284, dihydrochloride]
III = CCN1CCN(c2nc(C(=O)c3ccccc3OC)cc3ccccc23)CC1 [Example 111, Oxalate]
### Prompt Order the records, beginning with the lowest Ki and ending with the highest. // respond by listing labels in the order requested
### Response III, I, II
